Test system: Escherichia coli TOP10;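 also: peptides expressed intracellularly from a pBAD plasmid library in pooled LB shake-flask culture, induced with 0.3% L-arabinose, DNA abundance read by NGS, three biological replicates, DESeq2 with apeglm shrinkage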
METHOD_NOTES: shrunken log2 fold change of peptide-encoding DNA abundance (4.5 h post-induction vs induction); higher = less antimicrobial activity (less host growth inhibition)
EXPERIMENTAL_PARAMETERS: time post-induction: 4.5 h; library: site-saturation at positions 5, 18, 19, 20

{"SEQUENCE": "RRIRYRPPRLPRPRPRPFSDPRP", "shrunken log2 fold change": -0.03}
{"SEQUENCE": "RRIRFRPPRLPRPRPRPFMDPRP", "shrunken log2 fold change": -0.00928}
{"SEQUENCE": "RRIRFRPPRLPRPRPRPEYNPRP", "shrunken log2 fold change": -0.113}
{"SEQUENCE": "RRIRYRPPRLPRPRPRPRFHPRP", "shrunken log2 fold change": -0.939}
{"SEQUENCE": "RRIRGRPPRLPRPRPRPNAIPRP", "shrunken log2 fold change": 0.668}
{"SEQUENCE": "RRIRCRPPRLPRPRPRPQDGPRP", "shrunken log2 fold change": 0.143}
{"SEQUENCE": "RRIRNRPPRLPRPRPRPCDHPRP", "shrunken log2 fold change": -0.0208}
{"SEQUENCE": "RRIRERPPRLPRPRPRPICWPRP", "shrunken log2 fold change": 0.0372}
{"SEQUENCE": "RRIRPRPPRLPRPRPRPRETPRP", "shrunken log2 fold change": 0.574}
{"SEQUENCE": "RRIRIRPPRLPRPRPRPKFLPRP", "shrunken log2 fold change": -0.537}
{"SEQUENCE": "RRIRTRPPRLPRPRPRPPECPRP", "shrunken log2 fold change": 0.0838}
{"SEQUENCE": "RRIRSRPPRLPRPRPRPPGMPRP", "shrunken log2 fold change": -0.0105}
{"SEQUENCE": "RRIRWRPPRLPRPRPRPRMYPRP", "shrunken log2 fold change": -0.196}
{"SEQUENCE": "RRIRARPPRLPRPRPRPMPKPRP", "shrunken log2 fold change": 0.411}
{"SEQUENCE": "RRIRSRPPRLPRPRPRPQTRPRP", "shrunken log2 fold change": 0.181}
{"SEQUENCE": "RRIRTRPPRLPRPRPRPGWEPRP", "shrunken log2 fold change": 0.0505}
{"SEQUENCE": "RRIRWRPPRLPRPRPRPAVNPRP", "shrunken log2 fold change": 0.185}
{"SEQUENCE": "RRIRWRPPRLPRPRPRPNSAPRP", "shrunken log2 fold change": 0.104}
{"SEQUENCE": "RRIRHRPPRLPRPRPRPSHQPRP", "shrunken log2 fold change": -0.178}
{"SEQUENCE": "RRIRLRPPRLPRPRPRPFDYPRP", "shrunken log2 fold change": -0.974}
{"SEQUENCE": "RRIRHRPPRLPRPRPRPGSVPRP", "shrunken log2 fold change": -0.31}
{"SEQUENCE": "RRIRIRPPRLPRPRPRPNHCPRP", "shrunken log2 fold change": -0.937}
{"SEQUENCE": "RRIRTRPPRLPRPRPRPKMVPRP", "shrunken log2 fold change": -0.0237}
{"SEQUENCE": "RRIRVRPPRLPRPRPRPWVYPRP", "shrunken log2 fold change": -0.137}
{"SEQUENCE": "RRIRLRPPRLPRPRPRPPDTPRP", "shrunken log2 fold change": 0.257}
{"SEQUENCE": "RRIRDRPPRLPRPRPRPEHQPRP", "shrunken log2 fold change": -0.012}
{"SEQUENCE": "RRIRARPPRLPRPRPRPFMGPRP", "shrunken log2 fold change": -0.255}
{"SEQUENCE": "RRIRSRPPRLPRPRPRPLHRPRP", "shrunken log2 fold change": -0.216}
